Provide the recorded IC50 for the entries that follow.
- systemUnderTest: human MutSα (Homo sapiens, UniProt P43246+P52701)
- Construct: Msh2(1-934), Gene ID NP_000242.1; Msh6(1-1360), Gene ID NP_001393725.1
- Sequence (P43246 whole entry): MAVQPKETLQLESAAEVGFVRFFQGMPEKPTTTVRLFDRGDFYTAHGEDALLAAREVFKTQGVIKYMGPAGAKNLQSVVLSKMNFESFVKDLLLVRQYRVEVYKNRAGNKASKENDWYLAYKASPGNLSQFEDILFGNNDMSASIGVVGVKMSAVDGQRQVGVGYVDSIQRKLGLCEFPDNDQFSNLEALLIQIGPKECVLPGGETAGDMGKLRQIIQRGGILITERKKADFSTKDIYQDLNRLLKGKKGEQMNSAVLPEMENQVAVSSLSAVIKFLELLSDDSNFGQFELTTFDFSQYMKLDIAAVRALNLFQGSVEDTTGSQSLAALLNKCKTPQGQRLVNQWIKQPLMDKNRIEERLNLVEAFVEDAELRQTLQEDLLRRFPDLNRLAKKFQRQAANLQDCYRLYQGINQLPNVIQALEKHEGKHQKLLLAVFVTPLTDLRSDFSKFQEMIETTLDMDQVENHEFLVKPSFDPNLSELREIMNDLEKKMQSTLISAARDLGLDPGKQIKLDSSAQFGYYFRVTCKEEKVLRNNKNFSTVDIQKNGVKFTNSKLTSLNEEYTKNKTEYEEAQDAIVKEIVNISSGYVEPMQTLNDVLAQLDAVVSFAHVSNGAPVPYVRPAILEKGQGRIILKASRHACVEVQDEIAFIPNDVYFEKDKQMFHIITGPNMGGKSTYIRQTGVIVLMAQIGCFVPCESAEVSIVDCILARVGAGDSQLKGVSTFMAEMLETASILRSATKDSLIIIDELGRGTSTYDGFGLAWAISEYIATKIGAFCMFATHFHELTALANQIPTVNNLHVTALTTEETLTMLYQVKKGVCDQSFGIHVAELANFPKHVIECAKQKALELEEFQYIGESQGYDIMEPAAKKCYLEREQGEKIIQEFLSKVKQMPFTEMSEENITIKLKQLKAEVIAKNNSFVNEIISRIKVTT
- Sequence (P52701 whole entry): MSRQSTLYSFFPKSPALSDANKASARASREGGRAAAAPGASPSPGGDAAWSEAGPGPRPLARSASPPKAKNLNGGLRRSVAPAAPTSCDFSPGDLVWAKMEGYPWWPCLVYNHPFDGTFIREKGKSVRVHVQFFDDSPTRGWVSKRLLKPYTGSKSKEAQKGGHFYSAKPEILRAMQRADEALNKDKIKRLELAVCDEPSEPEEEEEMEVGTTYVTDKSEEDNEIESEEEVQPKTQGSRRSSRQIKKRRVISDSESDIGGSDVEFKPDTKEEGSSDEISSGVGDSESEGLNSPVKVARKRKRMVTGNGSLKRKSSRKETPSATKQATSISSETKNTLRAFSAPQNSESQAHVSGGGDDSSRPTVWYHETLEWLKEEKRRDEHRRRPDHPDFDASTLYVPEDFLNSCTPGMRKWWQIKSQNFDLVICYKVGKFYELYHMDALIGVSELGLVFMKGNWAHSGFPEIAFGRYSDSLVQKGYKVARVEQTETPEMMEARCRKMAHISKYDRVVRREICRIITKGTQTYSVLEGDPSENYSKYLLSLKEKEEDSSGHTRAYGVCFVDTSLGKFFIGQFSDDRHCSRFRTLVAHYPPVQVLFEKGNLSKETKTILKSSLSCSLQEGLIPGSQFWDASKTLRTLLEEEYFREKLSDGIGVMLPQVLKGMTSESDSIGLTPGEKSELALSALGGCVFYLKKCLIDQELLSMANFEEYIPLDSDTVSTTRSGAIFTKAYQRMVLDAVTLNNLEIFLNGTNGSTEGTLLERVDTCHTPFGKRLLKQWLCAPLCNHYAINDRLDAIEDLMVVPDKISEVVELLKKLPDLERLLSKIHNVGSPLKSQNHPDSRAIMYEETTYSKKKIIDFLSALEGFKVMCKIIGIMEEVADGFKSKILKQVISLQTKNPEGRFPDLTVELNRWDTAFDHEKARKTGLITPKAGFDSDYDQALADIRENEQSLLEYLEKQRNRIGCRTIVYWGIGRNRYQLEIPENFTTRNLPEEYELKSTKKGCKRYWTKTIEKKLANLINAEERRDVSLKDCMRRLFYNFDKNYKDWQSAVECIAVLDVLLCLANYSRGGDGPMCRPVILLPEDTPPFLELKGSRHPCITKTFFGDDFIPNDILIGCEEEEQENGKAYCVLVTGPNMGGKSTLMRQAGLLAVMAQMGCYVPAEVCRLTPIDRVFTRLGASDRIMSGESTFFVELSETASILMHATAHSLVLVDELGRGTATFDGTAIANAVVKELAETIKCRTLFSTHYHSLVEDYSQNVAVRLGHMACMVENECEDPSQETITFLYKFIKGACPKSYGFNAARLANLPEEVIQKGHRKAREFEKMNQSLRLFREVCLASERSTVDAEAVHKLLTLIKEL
- procedureDetails: ADP Glo assay with MutSα (2.1)
- conditionDescription: 15 nM MutSα/DNA, 30 μM ATP
Your answer is read as µM, so omit the unit and give the number.

Could you share which IC50 value was measured for CCN1CCN(c2nc(Nc3ccc(Cl)cc3)c3nccnc3n2)CC1 ?
121

Could you share which IC50 value was measured for CCN1CCN(c2nc(Nc3ccc(F)c(F)c3)c3nccnc3n2)CC1 ?
42.7

Could you share which IC50 value was measured for CCN1CCN(c2nc(Nc3ccc(F)c(C)c3)c3nccnc3n2)CC1 ?
42.3

Could you share which IC50 value was measured for Cc1ccc(Nc2nc(N3CCN(C)CC3)nc3nccnc23)cc1Cl ?
26.9

Could you share which IC50 value was measured for Cc1ccc(Nc2nc(N3CCN(C)CC3)nc3nccnc23)cc1C ?
135

###

- systemUnderTest: human MutSbeta (Homo sapiens, UniProt P20585+P43246)
- Construct: Msh2(1-934), Gene ID NP_000242.1; Msh3(1-1137), Gene ID J04810.1
- Sequence (P43246 whole entry): as the sequence (P43246 whole entry) above
- Sequence (P20585 whole entry): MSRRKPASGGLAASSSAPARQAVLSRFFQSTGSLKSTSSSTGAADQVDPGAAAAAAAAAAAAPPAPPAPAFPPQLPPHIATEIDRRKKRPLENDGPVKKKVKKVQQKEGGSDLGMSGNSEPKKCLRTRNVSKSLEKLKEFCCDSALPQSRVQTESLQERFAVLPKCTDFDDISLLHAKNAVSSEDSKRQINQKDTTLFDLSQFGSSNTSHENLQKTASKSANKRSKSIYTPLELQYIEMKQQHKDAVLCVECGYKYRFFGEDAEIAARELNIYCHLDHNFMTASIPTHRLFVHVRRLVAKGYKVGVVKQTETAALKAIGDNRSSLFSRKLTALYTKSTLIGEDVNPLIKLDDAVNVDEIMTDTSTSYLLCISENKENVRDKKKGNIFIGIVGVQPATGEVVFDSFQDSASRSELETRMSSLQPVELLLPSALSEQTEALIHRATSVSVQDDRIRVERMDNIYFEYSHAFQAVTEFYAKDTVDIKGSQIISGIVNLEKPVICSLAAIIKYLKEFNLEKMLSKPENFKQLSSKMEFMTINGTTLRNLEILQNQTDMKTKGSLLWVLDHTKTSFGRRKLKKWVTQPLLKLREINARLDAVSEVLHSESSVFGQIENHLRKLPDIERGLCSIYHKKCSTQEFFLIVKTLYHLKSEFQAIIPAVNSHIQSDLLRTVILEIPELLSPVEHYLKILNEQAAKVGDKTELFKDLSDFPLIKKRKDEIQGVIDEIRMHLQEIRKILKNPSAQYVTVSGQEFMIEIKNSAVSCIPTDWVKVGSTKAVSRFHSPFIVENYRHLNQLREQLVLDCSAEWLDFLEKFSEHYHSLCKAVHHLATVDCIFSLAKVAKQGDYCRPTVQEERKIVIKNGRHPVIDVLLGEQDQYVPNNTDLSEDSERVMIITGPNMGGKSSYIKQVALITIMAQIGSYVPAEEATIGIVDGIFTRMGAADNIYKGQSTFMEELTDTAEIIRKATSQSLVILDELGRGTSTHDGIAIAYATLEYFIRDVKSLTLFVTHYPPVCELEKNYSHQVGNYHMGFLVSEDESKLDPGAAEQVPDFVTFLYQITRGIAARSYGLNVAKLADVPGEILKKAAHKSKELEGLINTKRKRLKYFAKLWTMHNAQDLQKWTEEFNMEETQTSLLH
- procedureDetails: P33 SPA 1.1
- Assay type: biochemical
- conditionDescription: Table 5A; enzyme first added to compounds, then ATP
experimentalEndpoint: IC50 (µM)
Your answer is read as µM, so omit the unit and give the number.

Could you share which IC50 value was measured for Cc1cccc(Nc2nc(N3CCN(C)CC3)nc3nccnc23)c1 ?
41.5

Could you share which IC50 value was measured for Cc1cc(CNc2nc(N3CCN(C)CC3)nc3nccnc23)ccc1F ?
20

Could you share which IC50 value was measured for Cc1ccc(Nc2nc(N3CCN(C)CC3)nc3nccnc23)cc1C ?
55.9

Could you share which IC50 value was measured for CCC(=O)Nc1cccc(Nc2nc(N3CCN(C)CC3)nc3nccnc23)c1 ?
34

Could you share which IC50 value was measured for CN1CCN(c2nc(Nc3cccc(C4CC4C(=O)O)c3)c3nccnc3n2)CC1 (single isomer, unassigned) [Compound 47] ?
59

Could you share which IC50 value was measured for CCN1CCN(c2nc(Nc3ccc(F)c(C)c3)c3nccnc3n2)CC1 ?
24.5

Could you share which IC50 value was measured for CN1CCN(c2nc(Nc3cccc(C4CC4C(=O)O)c3)c3nccnc3n2)CC1 (single isomer, unassigned) [Compound 48] ?
12

Could you share which IC50 value was measured for Cc1ccc(Nc2nc(N3CCCN(C)CC3)nc3nccnc23)cc1C ?
71

Could you share which IC50 value was measured for Cc1ccc(Nc2nc(N3CCN(C)[C@@H](C)C3)nc3nccnc23)cc1C ?
25

###

- systemUnderTest: human MutSbeta (Homo sapiens, UniProt P20585+P43246)
- Construct: Msh2(1-934), Gene ID NP_000242.1; Msh3(1-1137), Gene ID J04810.1
- procedureDetails: ADP Glo assay 2.1
- Format: biochemical
- conditionDescription: 10 μM ATP, 7 nM enzyme; buffer with 5 mM GSH, 0.2% Ovalbumin
experimentalEndpoint: IC50 (µM)
Your answer is read as µM, so omit the unit and give the number.

Could you share which IC50 value was measured for CCC(=O)Nc1cccc(Nc2nc(N3CCN(C)CC3)nc3nccnc23)c1 [Compound 37] ?
71

Could you share which IC50 value was measured for Cc1ccc(Nc2nc(N3CCN(C(C)C)CC3)nc3nccnc23)cc1C [Compound 24] ?
37

Could you share which IC50 value was measured for Cc1cccc(Nc2nc(N3CCN(C)CC3)nc3nccnc23)c1 [Compound 6] ?
47.1

Could you share which IC50 value was measured for CC(=O)Nc1cccc(CNc2nc(N3CCN(C)CC3)nc3nccnc23)c1 [Compound 46] ?
38

Could you share which IC50 value was measured for Cc1cc(CNc2nc(N3CCN(C(C)C)CC3)nc3nccnc23)ccc1F [Compound 26] ?
36

Could you share which IC50 value was measured for CCN1CCN(c2nc(Nc3ccc(Cl)cc3)c3nccnc3n2)CC1 [Compound 4] ?
152

Could you share which IC50 value was measured for COc1cccc(Nc2nc(N3CCN(C)CC3)nc3nccnc23)c1 [Compound 40] ?
16

Could you share which IC50 value was measured for Cc1ccc(CNc2nc(N3CCCN(C)CC3)nc3nccnc23)cc1C [Compound 28] ?
38

Could you share which IC50 value was measured for CN1CCN(c2nc(NCc3ccccc3)c3nccnc3n2)CC1 [Compound 5] ?
148

###

- systemUnderTest: human MutSbeta (Homo sapiens, UniProt P20585+P43246)
- Construct: Msh2(1-934), Gene ID NP_000242.1; Msh3(1-1137), Gene ID J04810.1
- procedureDetails: P33 SPA 1.1
- Format: biochemical
- conditionDescription: Table 5A; enzyme first added to compounds, then ATP
Provide the recorded IC50 for the entries that follow.
Your answer is read as µM, so omit the unit and give the number.

Could you share which IC50 value was measured for Cc1ccc(CNc2nc(N3CCN(C)CC3)nc3nccnc23)cc1C [Compound 27] ?
28

Could you share which IC50 value was measured for Cc1ccc(Nc2nc(N3CCN(C(C)C)CC3)nc3nccnc23)cc1C [Compound 24] ?
24

Could you share which IC50 value was measured for Cc1cnc2nc(N3CCN(C)CC3)nc(Nc3ccc(C)c(C)c3)c2n1 [Compound 38] ?
19

Could you share which IC50 value was measured for Cc1ccc(Nc2nc(N3CCN(C)CC3)nc3nccnc23)cc1Cl [Compound 20] ?
43.4

Could you share which IC50 value was measured for COc1cccc(Nc2nc(N3CCN(C)CC3)nc3nccnc23)c1 [Compound 40] ?
43

###

Provide the recorded pIC50 for the entries that follow.
- systemUnderTest: human MutSbeta (Homo sapiens, UniProt P20585+P43246)
- Construct: Msh2(1-934), Gene ID NP_000242.1; Msh3(1-1137), Gene ID J04810.1
- procedureDetails: ADP Glo assay 2.2
- Format: biochemical
- conditionDescription: as 2.1 but buffer with 2 mM GSH
Scale: negative log10 of molar concentration, which is what pIC50 denotes.

Could you share which pIC50 value was measured for CN1CCN(c2nc(Nc3cccc(C4CC4C(=O)O)c3)c3nccnc3n2)CC1 (single isomer, unassigned) [Compound 48] ?
4.57

Could you share which pIC50 value was measured for COc1ccc(Nc2nc(N3CCN(C)CC3)nc3nccnc23)cc1Cl ?
4.60

Could you share which pIC50 value was measured for CN1CCN(c2nc(Nc3cccc(Cl)c3)c3nccnc3n2)CC1 ?
4.37

Could you share which pIC50 value was measured for COc1cccc(Nc2nc(N3CCN(C)CC3)nc3nccnc23)c1 ?
4.47

Could you share which pIC50 value was measured for CCC(=O)Nc1cccc(Nc2nc(N3CCN(C)CC3)nc3nccnc23)c1 ?
4.01

Could you share which pIC50 value was measured for Cc1ccc(CNc2nc(N3CCN(C)CC3)nc3nccnc23)cc1C ?
4.59

Could you share which pIC50 value was measured for Cc1cc(CNc2nc(N3CCN(C)CC3)nc3nccnc23)ccc1F ?
4.46

Could you share which pIC50 value was measured for Cc1cc(CNc2nc(N3CCN(C(C)C)CC3)nc3nccnc23)ccc1F ?
4.02

Could you share which pIC50 value was measured for Cc1cnc2nc(N3CCN(C)CC3)nc(Nc3ccc(C)c(C)c3)c2n1 ?
5.00

Could you share which pIC50 value was measured for Cc1ccc(Nc2nc(N3CCN(C)[C@@H](C)C3)nc3nccnc23)cc1C ?
4.39

Could you share which pIC50 value was measured for Cc1ccc(Nc2nc(N3CCN(C)CC3)nc3nccnc23)cc1S(N)(=O)=O ?
3.97

Could you share which pIC50 value was measured for Cc1ccc(Nc2nc(N3CCN(C(C)C)CC3)nc3nccnc23)cc1C ?
4.22

Could you share which pIC50 value was measured for CC(=O)Nc1cccc(CNc2nc(N3CCN(C)CC3)nc3nccnc23)c1 ?
4.28

Could you share which pIC50 value was measured for CN1CCN(c2nc(Nc3cccc(C4CC4C(=O)O)c3)c3nccnc3n2)CC1 (single isomer, unassigned) [Compound 47] ?
4.42

Could you share which pIC50 value was measured for Cc1cc(Nc2nc(N3CCN(C)CC3)nc3nccnc23)ccc1C(N)=O ?
4.30

Could you share which pIC50 value was measured for Cc1ccc(CNc2nc(N3CCCN(C)CC3)nc3nccnc23)cc1C ?
4.09

Could you share which pIC50 value was measured for CN1CCN(c2nc(NCc3cccc(S(N)(=O)=O)c3)c3nccnc3n2)CC1 ?
4.06

Could you share which pIC50 value was measured for CN1CCN(c2nc(NCc3cccc(S(C)(=O)=O)c3)c3nccnc3n2)CC1 ?
3.92

Could you share which pIC50 value was measured for Cc1ccc(Nc2nc(N3CCN(C)CC3)nc3nccnc23)cc1C(N)=O ?
4.12

###

- systemUnderTest: human MutSbeta (Homo sapiens, UniProt P20585+P43246)
- Construct: Msh2(1-934), Gene ID NP_000242.1; Msh3(1-1137), Gene ID J04810.1
- procedureDetails: P33 SPA 1.1
- Format: biochemical
- conditionDescription: Table 5B; assay repeated under similar conditions
Provide the recorded pIC50 for the entries that follow.
Scale: negative log10 of molar concentration, which is what pIC50 denotes.

Provide the documented pIC50 with human MutSbeta (Homo sapiens, UniProt P20585+P43246) as the system for Cc1ccc(Nc2nc(N3CCN(C)[C@@H](C)C3)nc3nccnc23)cc1C
4.35

Provide the documented pIC50 with human MutSbeta (Homo sapiens, UniProt P20585+P43246) as the system for Cc1cc(CNc2nc(N3CCN(C)CC3)nc3nccnc23)ccc1F
4.62

Provide the documented pIC50 with human MutSbeta (Homo sapiens, UniProt P20585+P43246) as the system for Cc1ccc(Nc2nc(N3CCN(C(C)C)CC3)nc3nccnc23)cc1C
4.60

Provide the documented pIC50 with human MutSbeta (Homo sapiens, UniProt P20585+P43246) as the system for Cc1ccc(Oc2nc(N3CCN(C)CC3)nc3nccnc23)cc1C
4.33

Provide the documented pIC50 with human MutSbeta (Homo sapiens, UniProt P20585+P43246) as the system for CN1CCN(c2nc(NCc3cccc(S(C)(=O)=O)c3)c3nccnc3n2)CC1
3.97

Provide the documented pIC50 with human MutSbeta (Homo sapiens, UniProt P20585+P43246) as the system for Cc1cc(CNc2nc(N3CCN(C(C)C)CC3)nc3nccnc23)ccc1F
4.12

Provide the documented pIC50 with human MutSbeta (Homo sapiens, UniProt P20585+P43246) as the system for CC(=O)Nc1cccc(CNc2nc(N3CCN(C)CC3)nc3nccnc23)c1
3.92

Values from patent US20240199624A1
